Assay: Circular dichroism (CD) spectroscopy of linear and stapled peptides in water or 40% TFE/water (Example 3)
Type: physicochemical
Details: λ = 222 nm; in water
Bridges are numbered along the chain shown (N, C = ends).
measured_quantity: [0]222 mean residue ellipticity (deg cm^2 dmol^−1)
Reply with just the number (in deg cm^2 dmol^−1).

Inquiry: What value of [0]222 mean residue ellipticity has been recorded for this entry: Ac-(cyclo-5,9)-VSKL[ESQLK]KRKQN-NH2 (Ac-VSKLESQLKKRKQN-NH2; lactam 5-9; SMILES CC(=O)N[C@H](C(=O)N[C@@H](CO)C(=O)N[C@@H](CCCCN)C(=O)N[C@@H](CC(C)C)C(=O)N[C@H]1CCC(=O)NCCCC[C@@H](C(=O)N[C@@H](CCCCN)C(=O)N[C@@H](CCCNC(=N)N)C(=O)N[C@@H](CCCCN)C(=O)N[C@@H](CCC(N)=O)C(=O)N[C@@H](CC(N)=O)C(N)=O)NC(=O)[C@H](CC(C)C)NC(=O)[C@H](CCC(N)=O)NC(=O)[C@H](CO)NC1=O)C(C)C) [Compound 151]
Reply text: -6.45E+03

Inquiry: Also need Ac-(cyclo-4,8)-VSK[ERSQK]VKRKQN-NH2 (Ac-VSKERSQKVKRKQN-NH2; lactam 4-8; SMILES CC(=O)N[C@H](C(=O)N[C@@H](CO)C(=O)N[C@@H](CCCCN)C(=O)N[C@H]1CCC(=O)NCCCC[C@@H](C(=O)N[C@H](C(=O)N[C@@H](CCCCN)C(=O)N[C@@H](CCCNC(=N)N)C(=O)N[C@@H](CCCCN)C(=O)N[C@@H](CCC(N)=O)C(=O)N[C@@H](CC(N)=O)C(N)=O)C(C)C)NC(=O)[C@H](CCC(N)=O)NC(=O)[C@H](CO)NC(=O)[C@H](CCCNC(=N)N)NC1=O)C(C)C) [Compound 150] , thanks.
Reply text: -3.35E+03

---

Known Fibrosis (% inhib.) of a selection of substances
Test system: IMR90 human fetal lung fibroblasts
Test: Fibrosis assay: active TGF-β levels in TGF-β treated fibroblasts (ELISA)
Assay type: cell-based
Conditions: % inhibition relative to positive control
Bridges are numbered along the chain shown (N, C = ends).
Reply with just the number (in % inhib.).

Reference set (5 entries):
Ac-(cyclo-8,12)-NLKQKIK[EVVKK]KDE-NH2 (Ac-NLKQKIKEVVKKKDE-NH2; lactam 8-12; SMILES CC[C@H](C)[C@H](NC(=O)[C@H](CCCCN)NC(=O)[C@H](CCC(N)=O)NC(=O)[C@H](CCCCN)NC(=O)[C@H](CC(C)C)NC(=O)[C@H](CC(N)=O)NC(C)=O)C(=O)N[C@@H](CCCCN)C(=O)N[C@H]1CCC(=O)NCCCC[C@@H](C(=O)N[C@@H](CCCCN)C(=O)N[C@@H](CC(=O)O)C(=O)N[C@@H](CCC(=O)O)C(N)=O)NC(=O)[C@H](CCCCN)NC(=O)[C@H](C(C)C)NC(=O)[C@H](C(C)C)NC1=O) [Compound 161]; 38
Ac-KIKHVVKLKDENSQLKSEVSKLRSQLVKRK-NH2 [Compound 265]; 0
Ac-(cyclo-4,8)-NLK[EKIKK]VVKLKDE-NH2 (Ac-NLKEKIKKVVKLKDE-NH2; lactam 4-8; SMILES CC[C@H](C)[C@@H]1NC(=O)[C@H](CCCCN)NC(=O)[C@@H](NC(=O)[C@H](CCCCN)NC(=O)[C@H](CC(C)C)NC(=O)[C@H](CC(N)=O)NC(C)=O)CCC(=O)NCCCC[C@@H](C(=O)N[C@H](C(=O)N[C@H](C(=O)N[C@@H](CCCCN)C(=O)N[C@@H](CC(C)C)C(=O)N[C@@H](CCCCN)C(=O)N[C@@H](CC(=O)O)C(=O)N[C@@H](CCC(=O)O)C(N)=O)C(C)C)C(C)C)NC(=O)[C@H](CCCCN)NC1=O) [Compound 157]; 38
Ac-(cyclo-11-15, cyclo-16-20)-KIKHVVKLKD[ENSQK][ESEVK]KLRSQLVKRIK-NH2 [Compound 267]; 0
Ac-NLKQKIKHVVKLKDENSQLKSEVSKLRSQLVKRKQN-NH2 [Compound 275]; 0

Inquiry: What value of Fibrosis (% inhib.) has been recorded for this entry: Ac-VSKLRSQLVKRKQN-NH2 [Compound 132]
Reply text: 0

Inquiry: Also need Ac-(cyclo-10-14, cyclo-15-19)-KIKHVVKLK[KENSE][EKSEK]SKLRSQLVKRK-NH2 [Compound 269] , thanks.
Reply text: 0

Inquiry: Also need Ac-(cyclo-4,8)-VSK[ERSQK]VKRKQN-NH2 (Ac-VSKERSQKVKRKQN-NH2; lactam 4-8; SMILES CC(=O)N[C@H](C(=O)N[C@@H](CO)C(=O)N[C@@H](CCCCN)C(=O)N[C@H]1CCC(=O)NCCCC[C@@H](C(=O)N[C@H](C(=O)N[C@@H](CCCCN)C(=O)N[C@@H](CCCNC(=N)N)C(=O)N[C@@H](CCCCN)C(=O)N[C@@H](CCC(N)=O)C(=O)N[C@@H](CC(N)=O)C(N)=O)C(C)C)NC(=O)[C@H](CCC(N)=O)NC(=O)[C@H](CO)NC(=O)[C@H](CCCNC(=N)N)NC1=O)C(C)C) [Compound 150] , thanks.
Reply text: 31
